- Measured Target: T1, recombinant human IL6R-his (human, UniProt P08887 20-365)
- T1 construct: In house made; the entry includes the C-terminal His tag; also called human IL6R-his protein
- T1 sequence: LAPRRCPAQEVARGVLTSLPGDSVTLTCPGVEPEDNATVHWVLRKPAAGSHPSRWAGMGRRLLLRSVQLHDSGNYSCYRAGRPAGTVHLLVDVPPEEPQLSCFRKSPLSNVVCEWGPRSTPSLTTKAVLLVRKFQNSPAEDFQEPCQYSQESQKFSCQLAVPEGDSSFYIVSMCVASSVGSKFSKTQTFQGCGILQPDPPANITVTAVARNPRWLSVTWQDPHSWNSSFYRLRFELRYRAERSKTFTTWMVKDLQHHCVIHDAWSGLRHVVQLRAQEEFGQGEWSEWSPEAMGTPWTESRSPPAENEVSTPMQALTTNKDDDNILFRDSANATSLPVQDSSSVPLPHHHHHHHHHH
- Assay Name: SPR Biacore T200; mAb captured by anti-mouse IgG on CM5, antigen in flow, 1:1 fit
Recorded koff by entry
Give the value, in units of s⁻¹, as a plain number.

Binder | koff [s⁻¹]
mouse anti-IL6R monoclonal antibody 1B5 (antibody, V domains shown, Mouse hybridoma mAb) VH: QVQLQQPGAELVKPGASVKLSCKASGYTFTSYWMHWVKQRPGQGLEWIGEINPSNGRTNYNENFKSKATLTVDKSSSTAYMQLSSLTSEDSAVYYCARLNTHYVFDYWGQGTTLTVSS VL: EIVLTQSPTILAASPGEKITFTCSVSSSISSNYLHWYQQKPGFSPKLLIYRTSNLASGVPARFSGSGSGTSYSLTIGTMEAEDVATYYCQQGSGIPFTFGSGTKLEIK | 6.7e-05
mouse anti-IL6R monoclonal antibody 1H9 (antibody, V domains shown, Mouse hybridoma mAb) VH: QVQLQQPGAELVKPGASVKLSCKASGYTFTSYWMHWVKLRPGQGLEWIGEINPTNGRTNYYEKFKNRATLTADKSSSTAYMQLSSLTFEDSAVYFCAKFHYSRWYFDVWGTGTTVTVSS VL: DIVMTQSQKFMSTSVGDRVSITCKASQNVGTAVVWYQQKPGQSPKLLINPASNRYTGVPDRFTGSGSGTDFTLTISNMQSEDLADYFCQQYSSYPLTFGAGTKLELK | 0.00012

From here, focus on the item given below.
Note down koff recorded for mouse anti-IL6R monoclonal antibody 1H7 (antibody, V domains shown, Mouse hybridoma mAb) VH: QVQLQQPGTELVKPGASVKLSCKASGYTFTNYWMHWVKQRPGQGLDWIGEINPTNGRTNYNENFKSKATLTVDKSSSTAYMQLSSLTSEDSAVYYCARLNTHYVFDSWGQGTTLTLSS VL: EIVLTQSPTTLAASPGEKITFTCSVSSSISSNYLHWYQQKPGFSPKLLISRTSTLASGVPARFSGSGSGTSYSLTIGTMEAEDVATYYCQQGSGIPFTFGSGTKLELK 4.73e-05
